# cAMP pEC50 values compiled below
- Tested On: RXFP4 (relaxin family peptide receptor 4) on CHO-K1-RXFP4 cells (UniProt Q8TDU9 1-374, limits assumed)
- Sequence (Q8TDU9 whole entry): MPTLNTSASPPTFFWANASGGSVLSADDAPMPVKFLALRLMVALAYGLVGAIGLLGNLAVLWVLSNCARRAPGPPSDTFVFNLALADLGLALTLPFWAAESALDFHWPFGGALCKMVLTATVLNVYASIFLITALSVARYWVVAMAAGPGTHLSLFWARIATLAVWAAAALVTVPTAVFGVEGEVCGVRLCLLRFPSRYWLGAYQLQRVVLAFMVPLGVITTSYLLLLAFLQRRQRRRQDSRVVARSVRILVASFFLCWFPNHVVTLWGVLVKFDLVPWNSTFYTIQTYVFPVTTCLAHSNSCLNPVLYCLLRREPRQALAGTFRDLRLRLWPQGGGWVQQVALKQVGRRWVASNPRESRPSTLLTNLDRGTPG
- Assay Text: cell-based or functional assay
Square brackets hold non-standard residues; d marks the D form. Ends that are not written are not given here. αMeF = C[C@](N)(Cc1ccccc1)C(=O)O

{"Binder": "INSL5-A13: B7-24_G20/21 (two-chain G20/21 analogue) (ligand, GlyGly at positions B20 and B21; also called Formula III) chain 1: CTDGASMKDLSALC chain 2: CGLEYIRTVIYICGGSRW", "cAMP pEC50": 8.93}
{"Binder": "SGL[αMeF]YIR[αMeF]VIYIEGGSRW (18-residue RXFP4 agonist with two αF residues and glutamic acid at residue 19 (numbering of native INSL5 B chain)) [πI5B7-24-GG-S19E]", "cAMP pEC50": 7.39}
{"Binder": "SGL[αMeF]YIR[αMeF]VIYISGGSRW (18-residue RXFP4 agonist; also called aF stapled analogue; πI5B) [αF stapled analogue (INSL5 B-chain, Formula V)]", "cAMP pEC50": 7.06}
